These data points were gathered from patent US20070059773A1.

target: rat striatal A2A receptor (Rattus norvegicus, UniProt P30543); assay: biochemical; conditions: Ki Low affinity, pH 7.4
Sequence (P30543 whole entry): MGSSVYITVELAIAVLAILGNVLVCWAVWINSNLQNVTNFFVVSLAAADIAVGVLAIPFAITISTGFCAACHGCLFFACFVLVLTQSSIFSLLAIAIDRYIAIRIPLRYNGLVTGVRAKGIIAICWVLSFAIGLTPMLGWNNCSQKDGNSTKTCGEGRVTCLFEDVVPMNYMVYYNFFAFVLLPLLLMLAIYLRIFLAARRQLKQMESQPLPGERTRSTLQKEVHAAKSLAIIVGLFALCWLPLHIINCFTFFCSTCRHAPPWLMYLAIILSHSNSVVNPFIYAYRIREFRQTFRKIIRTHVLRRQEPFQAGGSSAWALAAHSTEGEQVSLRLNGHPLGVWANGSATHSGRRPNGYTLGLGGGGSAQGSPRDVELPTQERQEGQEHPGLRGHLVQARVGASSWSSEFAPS
Measured pKi, listed per entry.
Formally, pKi is defined as -log10 of the concentration c, with c in mol/L.

Mol smiles | Measured quantity | Readout value
CCOc1nc(N)c2ncn([C@@H]3O[C@H](CO)[C@@H](O)[C@H]3O)c2n1 | pKi | 5.18

compound "COc1nc(N)c2ncn([C@@H]3O[C@H](CO)[C@@H](O)[C@H]3O)c2n1" , pKi observed: 5.60

----------
target: human A1 receptor (Homo sapiens, UniProt P30542); experiment: Displacement of [3H]-DPCPX from the human A1 receptor; format: binding; conditions: pH 6.2; read-out: Ki high affinity sites
Sequence (P30542 whole entry): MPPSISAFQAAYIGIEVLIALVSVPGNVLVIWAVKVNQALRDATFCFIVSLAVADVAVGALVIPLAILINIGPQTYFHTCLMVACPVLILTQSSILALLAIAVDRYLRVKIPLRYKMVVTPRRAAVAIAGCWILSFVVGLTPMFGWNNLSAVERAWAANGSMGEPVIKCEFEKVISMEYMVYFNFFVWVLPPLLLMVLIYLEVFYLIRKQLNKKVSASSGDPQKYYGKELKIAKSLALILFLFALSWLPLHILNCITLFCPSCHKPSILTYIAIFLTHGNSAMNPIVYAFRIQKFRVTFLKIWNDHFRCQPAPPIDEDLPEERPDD
Measured quantity: Ki (µM)
Answer with a number only, understood to be in µM.

Here "COc1nc(N)c2ncn([C@@H]3O[C@H](CO)C[C@H]3O)c2n1" was tested on human A1 receptor (Homo sapiens, UniProt P30542), and its Ki came to 0.405

----------
biological target: rat striatal A2A receptor (Rattus norvegicus, UniProt P30543); experiment: biochemical; settings: Ki, pH 7.4; one affinity state
Measured quantity: pKi
Formally, pKi is defined as -log10 of the concentration c, with c in mol/L.

compound Nc1nc(Nc2ccccc2)nc2c1ncn2[C@@H]1O[C@H](CO)[C@@H](O)[C@H]1O [CV1808, 2-phenylamino-adenosine, reference compound] , pKi observed: 6.77
